Would you kindly list z-score for each of these molecules?
experiment: MM1S myeloma cell viability, profiling panel, resazurin fluorescence, basal, 24 h, PK04 Diversity Set (AID 1174); settings: higher = more signal, called active from +8 up or from −8 down;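 note: MM1S multiple myeloma cell line; test concentration not given here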
When you answer, write just the number.

Req: Reported z-score for CC(C)CNC(=O)[C@@]1(Cc2ccccc2I)c2ccccc2C(=O)N(C2CCCCC2)[C@H]1c1ccc(CO)cc1 : what is it?
Resp: -0.424

Req: What value of z-score has been reported for the following molecule? COCCOC(=O)N1C(=O)[C@@]2(c3cc(C#CCNC(N)=O)ccc31)[C@H](C(=O)N1CCN(c3ncccn3)CC1)[C@H]1C(=O)O[C@H](c3ccccc3)[C@H](c3ccccc3)N1[C@@H]2c1ccc(OCCO)cc1
Resp: -0.814

Req: Record request: z-score value, item CC1(C)C2C=C(C(O)C3C=CC4C(=O)NC(=O)C4N3Nc3ccc(Cl)cc3Cl)C[C@@H]1C2 (some centres not stated)
Resp: -1.9

Req: Given C=CCNC(=O)[C@H]1[C@@H]2C(=O)O[C@@H](c3ccccc3)[C@@H](c3ccccc3)N2[C@@H](c2ccccc2OCCO)[C@]12C(=O)Nc1ccc(C#CCCO)cc12 , state its recorded z-score.
Resp: -0.942

Req: Query (molecule): O=C(NCCO)C1=C[C@H](Oc2ccccc2I)[C@@H](O)[C@H](N(Cc2ccco2)C(=O)Cc2ccccc2)C1 ; field requested: z-score
Resp: -0.123

Req: Fill in the blank: the reported z-score of C=CCC(OC(C)=O)[C@@H]1[C@@H](N(Cc2cccc3ccccc23)C(=O)c2ccc(-c3ccccc3)cc2)c2cc(OCCCO)ccc2N1C(=O)c1ccc2ccccc2c1 (some centres not stated) is ____.
Resp: 0.163

Req: z-score lookup needed for O=C(OCc1ccccc1)C1=CCC2c3[nH]c4ccccc4c3C(=O)C1N2S(=O)(=O)c1ccccc1[N+](=O)[O-] (configuration not stated) , thanks.
Resp: -1.2

---

Hi there, I'd appreciate the recorded z-score for every entry that follows.
test: basal RPMI8226 mitochondrial membrane potential changes, profiling panel, cell-based, JC-1 fluorescence, 24 h, 100 nL compound (AID 1169); details: RPMI8226 myeloma, JC-1 mitochondrial potential fluorescence, higher = more signal; note: test concentration not given here

Req: Look up z-score for this compound: CN1C(=O)C2C=CC(C(O)C#Cc3ccccc3)N(N3CCCCC3)C2C1=O (centres undefined)
Resp: 0.382

Req: Look up z-score: CC(C)=CCCC(C)=CC(O)C1C=CC2C(=O)N(C)C(=O)C2N1Nc1ccccc1 (centres undefined)
Resp: -0.934

Req: Give its z-score value. Item: CCOC(=O)[C@H]1C/C=C/C[C@H](C(=O)OCC)C(=O)O[C@H]2[C@@H](OC)O[C@H](CO)[C@@H](OC(=O)c3c(OC)cccc3OC)[C@@H]2OC1=O
Resp: -0.999

Req: What z-score value was documented for this compound, COc1cc2c(cc1O)C(c1cccs1)N(C)CC2 (centres undefined) ?
Resp: -0.0651

Req: Record request: z-score value, item COc1cc2c(cc1OC)CN(C(=O)[C@@H]1[C@H]3C(=O)O[C@H](c4ccccc4)[C@H](c4ccccc4)N3[C@H](c3ccccc3OCCO)[C@@]13C(=O)Nc1ccc(C#CCCO)cc13)CC2
Resp: -1.21

Req: Could you tell me which z-score is on file for C=C[C@H](OC)[C@@H](OC(=O)Nc1ccc(OC)cc1)c1ccc(O)c(F)c1 ?
Resp: -0.538

Req: Give its z-score value. Item: COCCOC(=O)N1C(=O)[C@@]2(c3cc(C#CCNC(N)=O)ccc31)[C@H](C(=O)Nc1nc3ccccc3s1)[C@H]1C(=O)O[C@H](c3ccccc3)[C@H](c3ccccc3)N1[C@@H]2c1ccc(OCCO)cc1
Resp: -0.692

Req: If you can, please state the reported z-score value of O=C1OCCC/C=C\[C@H]2OC34C=CCN(Cc5ccccc5)C(=O)[C@H]3N(CCCO)C(=O)[C@@H]4C12 (some centres undefined) .
Resp: 0.0319

Req: Using the record for COc1cc2c(cc1O)C(C1CC1)N(Cc1sc3ccccc3c1Cl)CC2 (centres undefined) , report its z-score.
Resp: -0.858

Req: # input compound: C=C(CCCC)/C(=C/C[C@@H](OC(=O)c1ccncc1)c1ccc(OCCO)cc1)c1cc(C(=O)OC)ccc1OC ; wanted: its z-score
Resp: -0.728

Req: What value of z-score has been reported for the following compound? C=CCNC(=O)[C@@H]1[C@H]2C(=O)O[C@H](c3ccccc3)[C@H](c3ccccc3)N2[C@H](c2ccc(OCCO)cc2)[C@@]12C(=O)Nc1ccc(C#CCC(C(=O)OC)C(=O)OC)cc12
Resp: -0.907

Req: GET /values?readout=z-score&item= CC(C)C(O)C1C=CC2C(=O)NC(=O)C2N1Nc1ccc(Cl)cc1Cl (centres undefined)
Resp: -0.161

Req: For the compound C=CCOC(=O)[C@H]1[C@@H]2C(=O)O[C@@H](c3ccccc3)[C@@H](c3ccccc3)N2[C@@H](c2ccc(OCCOC(=O)[C@H]3C[C@H]4C(=O)N[C@@H](CCCCN(C)C)C(=O)N4[C@H]3c3ccc(O)cc3)cc2)[C@]12C(=O)Nc1ccc(I)cc12 , what z-score is on record?
Resp: 0.742

Req: I have this compound here, CN(C)CCCC[C@@H]1NC(=O)[C@H]2C[C@@H](C(=O)NCCCCCCN)[C@@H](c3ccc(O)cc3)N2C1=O , and I need its recorded z-score.
Resp: -0.128

---

experiment: osmotic lysis modulators in infected erythrocytes, primary screen, PSAC antagonist project, cell-based, P. falciparum Indochina, OD700, 3 h (AID 1156); conditions: higher = more signal, called active from +8 up or from −8 down
Activity calls are given as the source filed them.
Please provide measured z-score for the entries that follow.

Req: Look up z-score: C=CCOC(=O)[C@H]1[C@@H]2C(=O)O[C@@H](c3ccccc3)[C@@H](c3ccccc3)N2[C@@H](c2ccc(OCCOC(=O)[C@@H]3C[C@@H]4C(=O)N[C@@H](CCCCNC(C)=O)C(=O)N4[C@@H]3c3ccc(O)cc3)cc2)[C@]12C(=O)Nc1ccccc12
Resp: 4.15 (inactive)

Req: For the compound COC(=O)[C@@]1(CCS(=O)(=O)c2ccccc2)N=C(c2ccc(OCCCO)cc2)O[C@H]1c1ccccc1CN=[N+]=[N-] , what z-score is on record?
Resp: 1.26 (inactive)

Req: Which z-score is reported for this compound? CCOC(=O)C[C@H]1[C@H](OC(=O)c2ccc(-c3ccccc3)cc2)[C@@H](NC(=O)Cc2ccc(OC)cc2)c2cc(OCCCO)ccc2N1C(=O)c1ccccc1
Resp: 0.438 (inactive)

Req: Please report the recorded z-score for CC(C)C(=C=CC[C@@H](O)c1ccc(OCCO)cc1)C[C@@H](O)c1ccccn1 .
Resp: 0.166 (inactive)

Req: GET /values?readout=z-score&item= CCC(CC)C(O)C1C=CC2C(=O)NC(=O)C2N1Nc1ccc(Cl)cc1Cl (stereo unspecified)
Resp: 0.0089 (inactive)

Req: Quick one: z-score of O=C1C[C@@](C(=O)NCCN2CCOCC2)(c2ccc([N+](=O)[O-])cc2)[C@@H](c2ccc(CO)cc2I)N1CC12CC3CC(CC(C3)C1)C2 ?
Resp: 0.797 (inactive)

Req: Query (compound): C=CCN1C(=O)[C@@]2(CC=C)N=C(c3ccc(OCCCO)cc3)O[C@H]2c2ccccc21 ; field requested: z-score
Resp: 3.11 (inactive)

Req: Given COc1ccc([Si](C)(C)[C@H]2[C@H](CC(=O)N3Cc4ccccc4C[C@H]3CO)O[C@@]3(C(=O)N(Cc4cccc(N5CCC5=O)c4)c4ccccc43)[C@@H]2C)cc1 , state its recorded z-score.
Resp: 0.011 (inactive)

Req: Name the recorded z-score for CC(=O)n1cc(C(O)C2C=CC3C(=O)N(c4ccccc4)C(=O)C3N2Nc2ccc([N+](=O)[O-])cc2)c2ccccc21 (stereo unspecified) .
Resp: 1.13 (inactive)

Req: What value of measured z-score is listed for O=C1C2C=CC(C(O)CCc3ccccc3)N(Nc3ccccc3F)C2C(=O)N1c1ccccc1 (stereo unspecified) ?
Resp: 0.517 (inactive)

Req: I'd like to know its z-score. The compound in question is CCc1cccc(NC(=O)O[C@H]2[C@H](OC(=O)Nc3ccccc3-c3ccccc3)[C@@H](OC(=O)Nc3ccccc3-c3ccccc3)[C@@H](OC)O[C@@H]2CO)c1
Resp: -0.975 (inactive)

Req: Reported z-score, compound CC(C)C[C@@H]1NC(=O)[C@@H]2C[C@H](C(=O)NCc3ccc(F)cc3)[C@H](c3cccc(OCCO)c3)N2C1=O : ____
Resp: -1.79 (inactive)

Req: Given the compound COC(=O)[C@@]1(CCC(=O)OC(C)(C)C)N=C(c2ccc(OCCCO)cc2)O[C@H]1c1ccccc1N=[N+]=[N-] , what is its reported z-score?
Resp: 1.67 (inactive)

Req: Suppose we examine the compound C=C[C@H](CO)NS(=O)(=O)c1ccc(Br)cc1 ; what z-score value has been reported?
Resp: -0.154 (inactive)

Req: What does the data say about its z-score? Entry: CC(C)=CCCC(C)=CC(O)C1C=CC2C(=O)N(C)C(=O)C2N1Nc1ccccc1 (stereo unspecified)
Resp: 0.977 (inactive)

Req: For C[N+](C)(C)CCCC[C@@H]1NC(=O)[C@H]2C[C@@H](C(=O)NCCCCCCNC(=O)CS)[C@@H](c3cccc(OCCO)c3)N2C1=O , what is its reported z-score?
Resp: 1.8 (inactive)

Req: Looking for the measured z-score of CCCc1cc2c(n1Cc1cc(F)cc(F)c1)C(C)C1CN(C(=O)c3ccccc3)C(C)(C(=O)OC)C21 (stereo unspecified) , can you help?
Resp: 1.95 (inactive)

Req: Entry under review: NC(=O)NCC#Cc1ccc2c(c1)[C@]1(C(=O)N2)[C@H](c2ccccc2OCCO)N2[C@H](c3ccccc3)[C@H](c3ccccc3)OC(=O)[C@H]2[C@@H]1C(=O)Nc1nc2ccccc2s1 . Reported z-score?
Resp: -5.62 (inactive)

Req: Need z-score of [N-]=[N+]=Nc1ccccc1[C@H]1OC(c2ccc(OCCCO)cc2)=N[C@@]1(CCS(=O)(=O)c1ccccc1)C(N)=O , thanks.
Resp: 1.48 (inactive)

Req: Need z-score, item CCOC(=O)C[C@H]1[C@H](OC(=O)c2ccccc2-c2ccccc2)[C@@H](NC(=O)CC(C)C)c2cc(OCCCO)ccc2N1C(=O)Cc1ccc(OC)cc1
Resp: 0.587 (inactive)

Req: Item COc1ccc(C#Cc2ccc3c(c2)[C@]2(C(=O)N3)[C@H](C(=O)Nc3nc4ccccc4s3)[C@H]3C(=O)O[C@H](c4ccccc4)[C@H](c4ccccc4)N3[C@@H]2c2ccc(O)cc2)cc1 has what recorded z-score?
Resp: -6.71 (inactive)

Req: Query (compound): COCCOC(=O)N1C(=O)[C@@]2(c3cc(C#CCCO)ccc31)[C@H](C(N)=O)[C@H]1C(=O)O[C@H](c3ccccc3)[C@H](c3ccccc3)N1[C@@H]2c1ccc(O)cc1 ; field requested: z-score
Resp: -0.458 (inactive)

Req: Value lookup for z-score; key = CC(C)C(O)C1C=CC2C(=O)N(c3ccccc3)C(=O)C2N1Nc1ccc([N+](=O)[O-])cc1 (stereo unspecified)
Resp: 0.928 (inactive)

Req: State the recorded z-score for this entry: C=CCOC(=O)[C@H]1[C@@H]2C(=O)O[C@@H](c3ccccc3)[C@@H](c3ccccc3)N2[C@@H](c2ccc(OCCOC(=O)[C@H]3C[C@H]4C(=O)N[C@@H](CCCC[N+](C)(C)C)C(=O)N4[C@H]3c3ccc(O)cc3)cc2)[C@]12C(=O)Nc1ccc(I)cc12
Resp: -3.16 (inactive)

Req: What value of z-score has been recorded for this entry: CN1C(=O)C2C=CC(C(O)c3ccccc3)N(N(c3ccccc3)c3ccccc3)C2C1=O (stereo unspecified)
Resp: -0.284 (inactive)

Req: Param item = COc1ccc(C#Cc2ccc3c(c2)[C@]2(C(=O)N3)[C@H](c3ccccc3OCCO)N3[C@H](c4ccccc4)[C@H](c4ccccc4)OC(=O)[C@H]3[C@@H]2C(=O)Nc2nc3ccccc3s2)cc1 ; retrieve measured z-score.
Resp: 1.46 (inactive)
